These measurements were taken from patent US10517889B2.

Measurement Description: Plasma chemistry markers after subcutaneous administration in beagle dogs (Example 8)
Cond: 30 mg/kg subcutaneous days 1, 3, 5, 8, 15, 22, 29, plasma at day 31
Exercise: for every item that follows, state its recorded Bilirubin.
Please state the number and follow it with the unit.

Batch of 6 substances: report Bilirubin for each.
1. 830025 (antisense TTTGTAAATCGAAAGC; 3-10-3 cEt gapmer, further chemistry not given here) [compound 830025]
2. 790615 (CCAATGAGAATGCTTC; 3-10-3 cEt gapmer, further chemistry not given here) [compound 790615]
3. 830037 (antisense CTATTGGCTGATCTGG; 3-10-3 cEt gapmer, further chemistry not given here) [compound 830037]
4. 798781 (CGTAAGATTCACAGCA; 3-10-3 cEt gapmer, further chemistry not given here) [compound 798781]
5. 829994 (GGAGGCAGGGCCGCGA; 3-10-3 cEt gapmer, further chemistry not given here) [compound 829994]
6. 830121 (AGAATCAAGCCCTGGC; 3-10-3 cEt gapmer, further chemistry not given here) [compound 830121]

Response given:
0.1 mg/dL
0.2 mg/dL
0.8 mg/dL
0.2 mg/dL
0.1 mg/dL
2.6 mg/dL
